- target.or.test.system: CL-11 (C)
- measurement.notes: FACS on CL-11 cells (do not express IGSF11; negative cell line) treated with scrambled control siRNA (SC)
observation.type: percentage binding
Answer shape: numeric part, then the unit.

Solved cases below.
binder	percentage binding
A-012 (human IgG1 format) (antibody, V domains shown, human IgG1 format) VH: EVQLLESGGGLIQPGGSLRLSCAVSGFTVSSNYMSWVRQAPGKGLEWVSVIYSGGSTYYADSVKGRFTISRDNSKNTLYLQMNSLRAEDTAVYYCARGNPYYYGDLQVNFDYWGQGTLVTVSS VL: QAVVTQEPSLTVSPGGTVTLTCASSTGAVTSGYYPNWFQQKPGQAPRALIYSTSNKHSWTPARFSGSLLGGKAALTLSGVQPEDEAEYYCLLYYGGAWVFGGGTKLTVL	5.11%
A-006 (human IgG1 format) (antibody, V domains shown, human IgG1 format) VH: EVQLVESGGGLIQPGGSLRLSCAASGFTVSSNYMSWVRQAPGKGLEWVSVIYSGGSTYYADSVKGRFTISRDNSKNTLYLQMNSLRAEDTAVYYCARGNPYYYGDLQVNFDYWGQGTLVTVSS VL: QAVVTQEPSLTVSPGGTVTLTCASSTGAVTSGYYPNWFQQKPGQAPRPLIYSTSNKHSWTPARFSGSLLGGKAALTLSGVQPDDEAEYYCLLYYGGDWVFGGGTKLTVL	2.31%

Now examine the next entry.
Which measured percentage binding value corresponds to A-011 (human IgG1 format) (antibody, V domains shown, human IgG1 format) VH: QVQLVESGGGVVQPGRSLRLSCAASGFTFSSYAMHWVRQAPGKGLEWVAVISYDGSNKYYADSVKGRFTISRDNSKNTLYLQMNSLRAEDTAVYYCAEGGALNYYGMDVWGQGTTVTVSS VL: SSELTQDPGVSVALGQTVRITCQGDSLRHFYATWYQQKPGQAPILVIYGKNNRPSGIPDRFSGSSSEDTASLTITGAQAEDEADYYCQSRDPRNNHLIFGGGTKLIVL ? 2.87%

Values compiled from patent US20210061908A1.
